# log10(IC50) per record follows
STUDY_SYSTEM: ErbB2 insYVMA (HER2-YVMA, SEQ ID NO: 2) (Homo sapiens, UniProt P04626, INS775YVMA/P1170A)
Sequence (P04626 with tags, fused parts or gaps INS775YVMA/P1170A limits assumed): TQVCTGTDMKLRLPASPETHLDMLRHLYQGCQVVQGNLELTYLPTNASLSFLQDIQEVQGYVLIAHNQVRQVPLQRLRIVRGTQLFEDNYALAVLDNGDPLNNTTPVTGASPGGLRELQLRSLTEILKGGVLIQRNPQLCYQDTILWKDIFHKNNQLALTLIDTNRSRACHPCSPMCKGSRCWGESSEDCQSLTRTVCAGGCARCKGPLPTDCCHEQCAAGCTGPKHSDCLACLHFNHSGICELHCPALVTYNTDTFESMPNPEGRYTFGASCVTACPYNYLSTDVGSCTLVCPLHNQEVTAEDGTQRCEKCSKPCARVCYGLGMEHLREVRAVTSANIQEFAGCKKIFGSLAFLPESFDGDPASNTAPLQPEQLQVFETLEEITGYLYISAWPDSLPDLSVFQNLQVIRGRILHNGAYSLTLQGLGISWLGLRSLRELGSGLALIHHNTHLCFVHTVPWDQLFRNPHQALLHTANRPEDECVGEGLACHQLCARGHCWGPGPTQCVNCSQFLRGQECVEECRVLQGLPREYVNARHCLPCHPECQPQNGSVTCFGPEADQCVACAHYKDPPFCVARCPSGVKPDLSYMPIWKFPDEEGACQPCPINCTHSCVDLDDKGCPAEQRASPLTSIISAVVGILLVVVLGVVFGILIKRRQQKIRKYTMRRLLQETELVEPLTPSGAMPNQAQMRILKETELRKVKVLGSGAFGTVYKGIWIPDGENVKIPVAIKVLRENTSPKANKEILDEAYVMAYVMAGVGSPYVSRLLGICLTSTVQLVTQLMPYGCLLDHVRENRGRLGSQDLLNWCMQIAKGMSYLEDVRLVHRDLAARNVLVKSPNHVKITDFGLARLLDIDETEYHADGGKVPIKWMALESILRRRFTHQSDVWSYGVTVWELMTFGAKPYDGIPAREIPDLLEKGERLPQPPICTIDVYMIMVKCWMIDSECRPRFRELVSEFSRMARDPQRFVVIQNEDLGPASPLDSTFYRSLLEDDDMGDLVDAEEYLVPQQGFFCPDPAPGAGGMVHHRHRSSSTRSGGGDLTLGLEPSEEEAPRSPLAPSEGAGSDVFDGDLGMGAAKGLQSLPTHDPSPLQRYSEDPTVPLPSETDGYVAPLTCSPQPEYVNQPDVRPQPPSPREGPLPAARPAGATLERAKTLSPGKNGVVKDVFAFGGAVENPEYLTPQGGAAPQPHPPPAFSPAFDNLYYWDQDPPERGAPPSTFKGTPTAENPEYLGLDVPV
ASSAY_DETAILS: biochemical
TEST_CONTEXT: Assay 1 IC50 (nM), ErbB2 insYVMA enzyme assay
MEASUREMENT_LABEL: log10(IC50) (log10 of the value in nM)

* Cn1cnc2cc(Oc3ccc(Nc4ncnc5cnc(N6CC7C8CCC(O8)C7C6)nc45)cc3Cl)ccc21.O=C(O)C(F)(F)F (stereo not shown) | 2.00
* Cn1cnc2cc(Oc3ccc(Nc4ncnc5cnc(N6CCN[C@@H](C(F)(F)F)C6)nc45)cc3Cl)ccc21.O=C(O)C(F)(F)F [Example 146, 2,2,2-trifluoroacetate] | 1.73
* Cn1cnc2cc(Oc3ccc(Nc4ncnc5cnc(N6CCN7CCOC[C@@H]7C6)nc45)cc3Cl)ccc21.O=C(O)C(F)(F)F.O=C(O)C(F)(F)F [Example 151, bis(2,2,2-trifluoroacetate)] | 1.39
* Cc1cc(Nc2ncnc3cnc(N4CCOCC4)nc23)ccc1Oc1ccc2scnc2c1.O=C(O)C(F)(F)F [Example 82, 2,2,2-trifluoroacetate] | 1.67
* Cc1cc(Nc2ncnc3cnc(N4C[C@H](C)O[C@@H](C)C4)nc23)ccc1Oc1ccc2c(c1)ncn2C | 1.84
* Cn1cnc2cc(Oc3ccc(Nc4ncnc5cnc(N6CC[C@H](C#N)C6)nc45)cc3Cl)ccc21 [Example 152, 2,2,2-trifluoroacetate] | 1.56
* CCn1cnc2cc(Oc3ccc(Nc4ncnc5cnc(N6CCOCC6)nc45)cc3C)ccc21 [Example 75, 2,2,2-trifluoroacetate] | 1.71
* CN1CCN(c2ncc3ncnc(Nc4ccc(Oc5ccc6c(c5)ncn6C)c(Cl)c4)c3n2)CC1 [Example 143, 2,2,2-trifluoroacetate] | 1.55
* Cn1cnc2cc(Oc3ccc(Nc4ncnc5cnc(N6C7CCC6COC7)nc45)cc3Cl)ccc21 | 2.03
* C[C@@H]1CN(c2ncc3ncnc(Nc4ccc(Oc5ccc6c(c5)ncn6C)c(Cl)c4)c3n2)CCN1C | 1.59
* CON1CCN(c2ncc3ncnc(Nc4ccc(Oc5ccc6c(c5)ncn6C)c(C)c4F)c3n2)CC1 [Example 142, 2,2,2-trifluoroacetate] | 1.38
* Cn1cnc2cc(Oc3ccc(Nc4ncnc5cnc(N6CCC7(CCOC7)C6)nc45)cc3Cl)ccc21 (stereo not shown) | 1.78
* Cc1cc(Nc2ncnc3cnc(N4CC[Si](C)(C)CC4)nc23)ccc1Oc1ccc2c(c1)ncn2C | 2.40

====

# IC50 measurements, system: ErbB2 WT (Homo sapiens (Human), UniProt P04626)
# Sequence (P04626 23-1255): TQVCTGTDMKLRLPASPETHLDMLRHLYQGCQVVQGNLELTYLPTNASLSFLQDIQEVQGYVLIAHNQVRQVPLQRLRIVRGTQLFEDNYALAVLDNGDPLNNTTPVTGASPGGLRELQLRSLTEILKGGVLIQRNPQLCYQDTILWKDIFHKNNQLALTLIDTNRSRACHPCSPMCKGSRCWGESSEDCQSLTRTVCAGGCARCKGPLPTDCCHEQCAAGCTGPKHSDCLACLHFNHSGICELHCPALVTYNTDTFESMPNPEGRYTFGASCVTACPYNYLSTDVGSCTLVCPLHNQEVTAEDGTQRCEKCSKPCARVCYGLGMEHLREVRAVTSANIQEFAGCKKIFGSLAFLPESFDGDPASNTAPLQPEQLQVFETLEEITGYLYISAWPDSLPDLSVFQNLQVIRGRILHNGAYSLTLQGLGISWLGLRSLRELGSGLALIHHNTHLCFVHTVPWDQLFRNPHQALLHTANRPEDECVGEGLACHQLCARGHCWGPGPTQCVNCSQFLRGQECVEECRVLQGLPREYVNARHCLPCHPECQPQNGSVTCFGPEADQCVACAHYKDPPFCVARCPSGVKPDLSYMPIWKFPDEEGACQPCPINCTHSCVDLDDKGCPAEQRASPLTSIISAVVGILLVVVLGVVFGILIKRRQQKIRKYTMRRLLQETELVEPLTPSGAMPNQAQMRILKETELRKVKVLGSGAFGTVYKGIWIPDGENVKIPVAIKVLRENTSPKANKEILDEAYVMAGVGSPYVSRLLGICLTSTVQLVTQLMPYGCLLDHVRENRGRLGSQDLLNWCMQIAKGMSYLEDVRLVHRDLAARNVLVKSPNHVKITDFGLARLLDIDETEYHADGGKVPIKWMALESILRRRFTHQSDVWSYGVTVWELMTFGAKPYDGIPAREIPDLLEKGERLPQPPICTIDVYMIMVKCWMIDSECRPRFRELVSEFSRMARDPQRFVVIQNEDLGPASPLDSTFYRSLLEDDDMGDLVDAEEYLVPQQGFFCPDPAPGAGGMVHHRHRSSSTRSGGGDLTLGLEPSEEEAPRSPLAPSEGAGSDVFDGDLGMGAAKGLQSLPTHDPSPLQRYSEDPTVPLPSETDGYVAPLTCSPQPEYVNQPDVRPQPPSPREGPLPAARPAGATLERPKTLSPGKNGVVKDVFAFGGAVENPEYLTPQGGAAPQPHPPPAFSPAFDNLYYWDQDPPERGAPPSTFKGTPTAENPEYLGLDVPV
MEASUREMENT_LABEL: IC50 (nM)

* Cn1cnc2cc(Oc3ccc(Nc4ncnc5cnc(N6CCN(C7COC7)CC6)nc45)cc3Cl)ccc21 | 77.2
* Cc1cc(Nc2ncnc3cnc(N4CCC[C@@](C)(O)C4)nc23)ccc1Oc1ccc2c(c1)ncn2C | 9.1
* Cc1cc(Nc2ncnc3cnc(N4CC5(CCOC5)C4)nc23)ccc1Oc1ccc2c(c1)ncn2C | 98.4
* O=S1(=O)CC[C@@H]2CN(c3ncc4ncnc(Nc5ccc(Oc6ccn7ncnc7c6)c(Cl)c5)c4n3)C[C@@H]21 | 67.4
* Cc1c(Oc2ccc3c(c2)ncn3C)ccc(Nc2ncnc3cnc(N(C)[C@H]4C[C@@](C)(O)C4)nc23)c1F | 14.8
* Cc1cc(Nc2ncnc3cnc(N(C)C)nc23)ccc1Oc1ccc2scnc2c1 | 145
* Cc1cc(Nc2ncnc3cnc(N4CC5(CC5)CS4(=O)=O)nc23)ccc1Oc1ccc2c(c1)ncn2C | 42.4

====

STUDY_SYSTEM: ErbB2 insYVMA (HER2-YVMA, SEQ ID NO: 2) (Homo sapiens, UniProt P04626, INS775YVMA/P1170A)
ASSAY_DETAILS: biochemical
TEST_CONTEXT: ErbB2 insYVMA enzyme assay; read-out: Assay 1 IC50
MEASUREMENT_LABEL: IC50

• Cc1c(Oc2ccn3ncnc3c2)ccc(Nc2ncnc3cnc(N4CCC(C)(O)CC4)nc23)c1F = 11.7 nM
• Cc1cc(Nc2ncnc3cnc(N4CCC[C@@H]5COC[C@@H]54)nc23)ccc1Oc1ccc2c(c1)ncn2C = 28.8 nM
• Cc1cc(Nc2ncnc3cnc(N4CC5(CCOC5)C4)nc23)ccc1Oc1ccn2ncnc2c1 = 81.6 nM
• Cc1cc(Nc2ncnc3cnc(N4CCC45CCOC5)nc23)ccc1Oc1ccc2c(c1)ncn2C (racemic) = 28.2 nM

====

# IC50 measurements, system: EGFR (Homo sapiens (Human), UniProt P00533)
# Sequence (P00533 25-1210): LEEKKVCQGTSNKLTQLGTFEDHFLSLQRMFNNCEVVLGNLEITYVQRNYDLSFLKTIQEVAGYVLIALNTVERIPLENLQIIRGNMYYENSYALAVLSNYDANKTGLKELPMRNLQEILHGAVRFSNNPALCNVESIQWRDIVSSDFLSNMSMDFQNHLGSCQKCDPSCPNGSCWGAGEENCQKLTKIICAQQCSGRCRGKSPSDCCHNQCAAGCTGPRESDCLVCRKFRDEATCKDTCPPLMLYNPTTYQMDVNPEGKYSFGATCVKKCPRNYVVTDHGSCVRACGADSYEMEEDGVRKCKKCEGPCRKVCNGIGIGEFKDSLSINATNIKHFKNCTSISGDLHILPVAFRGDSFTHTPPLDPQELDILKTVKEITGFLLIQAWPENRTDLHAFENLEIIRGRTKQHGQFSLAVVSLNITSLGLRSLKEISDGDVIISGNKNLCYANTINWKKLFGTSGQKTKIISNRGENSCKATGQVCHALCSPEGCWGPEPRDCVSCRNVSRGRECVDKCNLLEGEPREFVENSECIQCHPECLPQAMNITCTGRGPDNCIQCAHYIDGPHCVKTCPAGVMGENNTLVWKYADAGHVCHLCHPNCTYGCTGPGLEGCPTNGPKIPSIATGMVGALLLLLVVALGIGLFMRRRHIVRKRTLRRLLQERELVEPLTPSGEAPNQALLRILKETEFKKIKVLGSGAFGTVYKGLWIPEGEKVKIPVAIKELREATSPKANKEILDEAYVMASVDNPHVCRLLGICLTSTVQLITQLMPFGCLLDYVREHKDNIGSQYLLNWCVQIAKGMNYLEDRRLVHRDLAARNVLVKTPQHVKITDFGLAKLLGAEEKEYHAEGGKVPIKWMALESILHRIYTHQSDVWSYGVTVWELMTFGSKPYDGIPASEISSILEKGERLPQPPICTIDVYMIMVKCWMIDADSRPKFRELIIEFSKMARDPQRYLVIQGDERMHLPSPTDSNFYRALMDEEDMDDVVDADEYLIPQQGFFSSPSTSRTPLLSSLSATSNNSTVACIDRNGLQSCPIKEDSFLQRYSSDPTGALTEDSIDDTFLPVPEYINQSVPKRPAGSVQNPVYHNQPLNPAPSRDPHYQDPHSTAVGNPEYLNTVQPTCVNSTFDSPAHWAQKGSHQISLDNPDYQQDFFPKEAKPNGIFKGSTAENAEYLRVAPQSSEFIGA
MEASUREMENT_LABEL: IC50 (µM)

• Cc1cc(Nc2ncnc3cnc(N4CCN5CCOC[C@@H]5C4)nc23)ccc1Oc1ccc2c(c1)ncn2C = 8.14
• Cc1cc(Nc2ncnc3cnc(N(C)CCO)nc23)ccc1Oc1ccc2c(c1)ncn2C = 3.55

====

STUDY_SYSTEM: ErbB2 with Exon 20 YVMA insertion (HER2-YVMA) (Homo sapiens (Human), UniProt P04626, INS775YVMA)
Sequence (P04626 other isoform, or with tags, fused parts or gaps ins YVMA behind 775): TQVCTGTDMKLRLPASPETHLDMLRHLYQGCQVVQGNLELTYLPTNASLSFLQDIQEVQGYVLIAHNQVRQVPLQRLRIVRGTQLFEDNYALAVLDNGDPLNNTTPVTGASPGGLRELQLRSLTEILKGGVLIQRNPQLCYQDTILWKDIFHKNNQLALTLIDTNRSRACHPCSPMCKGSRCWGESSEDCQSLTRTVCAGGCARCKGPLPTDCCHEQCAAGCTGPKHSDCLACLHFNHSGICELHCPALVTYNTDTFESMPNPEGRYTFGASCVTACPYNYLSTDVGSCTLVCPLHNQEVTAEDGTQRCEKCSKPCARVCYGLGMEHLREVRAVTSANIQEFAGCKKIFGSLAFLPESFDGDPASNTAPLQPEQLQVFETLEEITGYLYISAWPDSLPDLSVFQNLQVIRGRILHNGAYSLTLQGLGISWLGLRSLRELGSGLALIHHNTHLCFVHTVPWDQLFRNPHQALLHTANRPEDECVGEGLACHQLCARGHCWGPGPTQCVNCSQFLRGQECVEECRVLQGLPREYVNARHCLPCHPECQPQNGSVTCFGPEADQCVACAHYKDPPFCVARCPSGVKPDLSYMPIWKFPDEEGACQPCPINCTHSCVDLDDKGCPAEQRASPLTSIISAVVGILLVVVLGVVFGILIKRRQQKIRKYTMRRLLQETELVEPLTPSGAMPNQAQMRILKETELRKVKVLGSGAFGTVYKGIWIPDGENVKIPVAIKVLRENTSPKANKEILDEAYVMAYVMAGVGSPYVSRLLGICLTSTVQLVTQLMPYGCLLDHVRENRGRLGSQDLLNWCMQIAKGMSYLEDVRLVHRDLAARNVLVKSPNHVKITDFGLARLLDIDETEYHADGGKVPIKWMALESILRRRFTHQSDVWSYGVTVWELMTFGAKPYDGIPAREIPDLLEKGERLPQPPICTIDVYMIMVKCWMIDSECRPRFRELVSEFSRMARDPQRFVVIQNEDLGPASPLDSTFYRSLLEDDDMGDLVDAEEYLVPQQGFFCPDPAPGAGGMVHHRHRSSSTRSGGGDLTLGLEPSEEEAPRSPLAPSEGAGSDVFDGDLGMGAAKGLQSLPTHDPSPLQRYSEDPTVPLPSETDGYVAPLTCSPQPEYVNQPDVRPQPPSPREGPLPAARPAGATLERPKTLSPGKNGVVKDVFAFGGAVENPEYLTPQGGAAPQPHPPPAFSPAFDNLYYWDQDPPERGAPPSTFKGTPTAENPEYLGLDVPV
ASSAY_DETAILS: Cellular phosphorylation assay, constitutive ErbB2 phosphorylation (Y1196) in engineered NIH 3T3 cells, Assay 4
Format: cell-based
pIC50: −log10 of the molar value.
# pIC50 per record follows
MEASUREMENT_LABEL: pIC50

- Cc1c(Oc2ccn3ncnc3c2)ccc(Nc2ncnc3cnc(N4C[C@@H]5C[C@H]4CO5)nc23)c1F [Example 313]: 5.75
- Cc1cc(Nc2ncnc3cnc(N(C)CC(F)F)nc23)ccc1Oc1ccn2ncnc2c1 [Example 372]: 6.82
- Cc1cc(Nc2ncnc3cnc(N4CC[C@H](C(F)F)C4)nc23)ccc1Oc1ccc2c(c1)ncn2C [Example 252]: 7.59
- COC[C@@H]1CCN1c1ncc2ncnc(Nc3ccc(Oc4ccn5ncnc5c4)c(Cl)c3)c2n1 [Example 328]: 6.51
- Cc1cc(Nc2ncnc3cnc(N4CC5(COC5)C4)nc23)ccc1Oc1ccc2c(c1)ncn2C [Example 26]: 7.21
- CNc1ncc2ncnc(Nc3ccc(Oc4ccc5scnc5c4)c(C)c3)c2n1 [Example 50, 2,2,2-trifluoroacetate]: 7.03
- Cc1cc(Nc2ncnc3cnc(O[C@H]4CNCC[C@H]4F)nc23)ccc1Oc1ccc2c(c1)ncn2C [Example 290]: 7.08

====

# IC50 per record follows
STUDY_SYSTEM: EGFR (Homo sapiens (Human))
MEASUREMENT_LABEL: IC50

- Cc1cc(Nc2ncnc3cnc(N4CC5C6CCC(O6)C5C4)nc23)ccc1Oc1ccc2c(c1)ncn2C (stereo not drawn) [Example 16]: ≥ 10 µM
- Cc1cc(Nc2ncnc3cnc(N)nc23)ccc1Oc1ccc2c(c1)ncn2C [Example 206, bis(2,2,2-trifluoroacetate)]: ≥ 10 µM
- Cc1cc(Nc2ncnc3cnc(N4CCC45CCOC5)nc23)ccc1Oc1ccc2c(c1)ncn2C (racemic) [Example 111]: 3.53 µM
- COCCOc1ncc2ncnc(Nc3ccc(Oc4ccc5c(c4)ncn5C)c(C)c3)c2n1 [Example 76, 2,2,2-trifluoroacetate]: ≥ 10 µM
- Cc1cc(Nc2ncnc3cnc(N4CC[C@]45CCOC5)nc23)ccc1Oc1ccc2c(c1)ncn2C (single isomer, unassigned) [Example 93b]: 1.35 µM
- Cc1cc(Nc2ncnc3cnc(N(C)CC4(O)CC4)nc23)ccc1Oc1ccc2c(c1)ncn2C [Example 166]: ≥ 10 µM
- Cc1cc(Nc2ncnc3cnc(N[C@H](C)COC(F)(F)F)nc23)ccc1Oc1ccc2c(c1)ncn2C [Example 64]: ≥ 10 µM
- Cn1cnc2cc(Oc3ccc(Nc4ncnc5cnc(N6CCC67COC7)nc45)cc3Cl)ccc21.O=C(O)C(F)(F)F [Example 145]: 0.896 µM
- Cc1cc(Nc2ncnc3cnc(NC4CCCC4)nc23)ccc1Oc1ccc2c(c1)ncn2C [Example 273]: ≥ 10 µM
- Cc1cc(Nc2ncnc3cnc(N4CC5(CC5)CO4)nc23)ccc1Oc1ccc2c(c1)ncn2C [Example 187]: ≥ 10 µM
- Cc1cc(Nc2ncnc3cnc(N4CCC[C@@]45CCOC5)nc23)ccc1Oc1ccc2c(c1)ncn2C (racemic) [Example 115]: 2.19 µM
- Cc1cc(Nc2ncnc3cnc(N4C[C@@H](C)O[C@@H](C)C4)nc23)ccc1Oc1ccc2c(c1)ncn2C [Example 25]: ≥ 10 µM
- Cc1cc(Nc2ncnc3cnc(N4CC[C@@H](C(C)(C)O)C4)nc23)ccc1Oc1ccc2c(c1)ncn2C [Example 113]: 8.48 µM
- Cc1cc(Nc2ncnc3cnc(N4CCCC4=O)nc23)ccc1Oc1ccn2ncnc2c1 [Example 137]: ≥ 10 µM
- Cc1cc(Nc2ncnc3cnc(O[C@H]4CN(C)CC[C@H]4F)nc23)ccc1Oc1ccc2c(c1)ncn2C [Example 293]: ≥ 10 µM

====

STUDY_SYSTEM: UniProtKB P00533
pIC50: −log10 of the molar value.
# pIC50 per record follows
MEASUREMENT_LABEL: pIC50

• Cc1cc(Nc2ncnc3cnc(N(C)CC(F)F)nc23)ccc1Oc1ccn2ncnc2c1 [Example 372] = 5.14
• Clc1cc(Nc2ncnc3cnc(N4CCOC5(CC5)C4)nc23)ccc1Oc1ccn2ncnc2c1 [Example 398] = 5.11
• Cc1cc(Nc2ncnc3cnc(N4C[C@H]5C[C@@H]4CO5)nc23)ccc1Oc1cc(F)c2c(c1)ncn2C [Example 204] = 5.09
